Assay Notes: qHTS of pediatric cancer cell lines to identify multiple opportunities for drug repurposing: Primary screen for SJ-GBM2 cells (AID 1347091)
Applied Conditions: SJ-GBM2 viability, CellTiter-Glo luminescence, 48 h; series mostly up to 46 µM
Records with an inconclusive call do not appear. Calls of active or inactive are those of the source. Calls come from the whole dose curve; as a rule, active = well fitted cell-killing curve with a large enough effect; inconclusive = small, poorly fitted or top-dose-only effect; inactive = no such curve, though single readings can be large or run the other way.
Outcome codes: t = active, f = inactive

# Compound, Answer Label
rows = [
    ("CN1CCC(=C2c3ccccc3C=Cc3ccccc32)CC1", "f"),
    ("CN1CCN2c3ccccc3Cc3ccccc3C2C1 (configuration not stated)", "f"),
    ("Cc1ccc(-c2cc(C(F)(F)F)nn2-c2ccc(S(N)(=O)=O)cc2)cc1", "f"),
    ("CCOC(=O)C(C)(C)Oc1ccc(Cl)cc1", "f"),
    ("CC(C)NCC(O)COc1ccc(CCOCC2CC2)cc1 (configuration not stated)", "f"),
    ("Cc1cn([C@H]2C[C@H](N=[N+]=[N-])[C@@H](CO)O2)c(=O)[nH]c1=O", "f"),
    ("CN1C2CCC1CC(OC(=O)C(CO)c1ccccc1)C2 (configuration not stated)", "f"),
    ("Clc1ccc2c(c1)C(N1CCNCC1)=Nc1ccccc1O2", "f"),
    ("O=c1[nH]cc(F)c(=O)[nH]1", "f"),
    ("OCCN1CCN(CCCN2c3ccccc3Sc3ccc(C(F)(F)F)cc32)CC1", "t"),
    ("COc1nc(C)nc(Cl)c1NC1=NCCN1", "f"),
    ("CCCCc1oc2ccccc2c1C(=O)c1cc(I)c(OCCN(CC)CC)c(I)c1", "t"),
]
